Source of measurements: patent US20110086806A1

target.system: T1, recombinant human IL-23R/Fc chimera (R&D Systems) (human, UniProt Q5VWK5 24-355)
T1 construct: Bought; also called rhIL23RFc
T1 sequence (looked up): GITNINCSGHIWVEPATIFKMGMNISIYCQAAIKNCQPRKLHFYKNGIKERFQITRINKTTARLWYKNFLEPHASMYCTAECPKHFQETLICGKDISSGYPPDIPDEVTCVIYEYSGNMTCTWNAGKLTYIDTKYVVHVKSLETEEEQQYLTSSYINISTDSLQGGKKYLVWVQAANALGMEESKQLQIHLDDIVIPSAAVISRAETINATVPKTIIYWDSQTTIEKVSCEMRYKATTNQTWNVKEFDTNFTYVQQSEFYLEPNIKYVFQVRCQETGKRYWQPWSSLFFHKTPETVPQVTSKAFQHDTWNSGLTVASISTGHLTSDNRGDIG
test.method.notes: SPR
recorded.metric: koff (s⁻¹)
Write the answer as a number in s⁻¹, unit excluded.

Record excerpt, results attached:
1. 101-54-4A12 ATRIMER complex (designed binder, also called 101-54-4Al2) EPPTQKPKKIVNAKKDVVNTKMFEELKSRLDTLAQEVALLKEQQALQTVCLKGTKVHMKCFLAFTQTKTFHEASEDCISRGGTLSTPQTGSENDALYEYLRQSVGNEAEIWLGLNGSRRSGVWVDMTGARIAYKNWEPPGPAHPQGGFGVFGENCAVLSGAANGKWFDKRCRDQLPYICQFGIV :: 0.000573
2. 101-51-1A7 ATRIMER complex (designed binder, Forms a homotrimer through the tetranectin coiled coil; one protomer is given., not shown: C-terminal tag: His/Myc (pANA4) or HA-StrepII (pANA10)) EPPTQKPKKIVNAKKDVVNTKMFEELKSRLDTLAQEVALLKEQQALQTVCLKGTKVHMKCFLAFTQTKTFHEASEDCISRGGTLSTPQTGSENDALYEYLRQSVGNEAEIWLGLNGSALTNTWVDMTGARIAYKNWERPPLYQPGGGWGVFGENCAVLSGAANGKWFDKRCRDQLPYICQFGIV :: 0.000187

With those in mind, consider the next binder.
Query block: I am curious: what koff value has been reported for 101-51-1A4 ATRIMER complex (designed binder, Forms a homotrimer through the tetranectin coiled coil; one protomer is given., not shown: C-terminal tag: His/Myc (pANA4) or HA-StrepII (pANA10)) EPPTQKPKKIVNAKKDVVNTKMFEELKSRLDTLAQEVALLKEQQALQTVCLKGTKVHMKCFLAFTQTKTFHEASEDCISRGGTLSTPQTGSENDALYEYLRQSVGNEAEIWLGLNGSALTNTWVDMTGARIAYKNWERPALVQPRGGFGVFGENCAVLSGAANGKWFDKRCRDQLPYICQFGIV ?
Result block: 0.000395
